# SYSTEM_TESTED: T1, human LTBP1-proTGFβ1 complex (human, UniProt Q14766 347-1721; P01137 30-390)
# T1 construct: Large latent complex: one presenting molecule disulfide-linked to a proTGFβ1 dimer; also called Hu LTBP1-proTGFβ1; huLTBP1 proTGFβ1
# PROTOCOL_DETAILS: Octet BLI, IgG captured
MEASURED_QUANTITY: pKd
The quantity pKd is defined as the negative base-10 logarithm of the molar concentration.

# annotated cases, reported pKd shown
>>> assay_value("SR-AB40 (antibody, IgG1, V domains shown, Cycle 3, lineage SR-AB23) VH: QVQLVESGGGVVQPGRSLRLSCAASGFTFRSYVMHWVRQAPGKGLEWVAVISHEGSLKYYADSVKGRFTISRDNSKNTLYLQMNSLRAEDTAVYYCARPRIAARRGGFGYWGQGTLVTVSS VL: NFMLTQPHSVSESPGKTVTISCTRSSGNIDNNYVQWYQQRPGSSPTTVIYEDNQRPSGVPDRFSGSIDSSSNSASLTISGLKTEDEADYYCQSYDYSNQGVVFGGGTKLTVL")
9.40
>>> assay_value("SR-AB44 (antibody, IgG1, V domains shown, Cycle 3, lineage SR-AB23) VH: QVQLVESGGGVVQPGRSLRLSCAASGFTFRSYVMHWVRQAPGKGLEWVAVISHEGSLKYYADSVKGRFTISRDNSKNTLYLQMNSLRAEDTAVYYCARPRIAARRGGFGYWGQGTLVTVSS VL: NFMLTQPHSVSESPGKTVTISCTRSHGNIDDNYVQWYQQRPGSSPTTVIYEDNVRPSGVPDRFSGSIDSSSNSASLTISGLKTEDEADYYCQSYDSDNQLVVFGGGTKLTVL")
9.67
>>> assay_value("SR-AB38 (antibody, IgG1, V domains shown, Cycle 3, lineage SR-AB22) VH: QVQLVESGGGVVQPGRSLRLSCAASGFTFRSYVMHWVRQAPGKGLEWVAVISHEGSLKYYADSVKGRFTISRDNSKNTLYLQMNSLRAEDTAVYYCAVPRIAARRGGFGYWGQGTLVTVSS VL: NFMLTQPHSVSESPGKTVTISCTRSSGSIDNNYVQWYQQRPGSSPTTVIYEDFIRPSGVPDRFSGSIDSSSNSASLTISGLKTEDEADYYCQSYDDDLQGVVFGGGTKLTVL")
9.45

Then this binder:
For reference, reported pKd for SR-AB45 (antibody, IgG1, V domains shown, Cycle 3, lineage SR-AB23) VH: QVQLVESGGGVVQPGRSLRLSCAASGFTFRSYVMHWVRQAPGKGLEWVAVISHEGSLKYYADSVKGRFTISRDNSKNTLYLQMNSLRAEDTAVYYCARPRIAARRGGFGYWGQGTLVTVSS VL: NFMLTQPHSVSESPGKTVTISCTRSSGAIDDNYVQWYQQRPGSSPTTVIYEDFQRPSGVPDRFSGSIDSSSNSASLTISGLKTEDEADYYCQSYDDDLQGVVFGGGTKLTVL stands at 9.71
